# Assay type: in vitro ADME
# assay_conditions: extraction ratio, compound at 1 uM, beagle dog liver microsomes 0.5 mg/mL
# Description: Metabolic stability of novel protease inhibitors was determined via liver microsomal stability assay. Human, mouse, SD rat, beagle dog or monkey liver microsomes were incubated with the test compound for 5 to 60 minutes at 37° C., and then the remaining parent compound was quantified by LC-MS/MS. […] All samples were centrifuged at 4° C. for 20 minutes at 4,000 rpm. […] Samples were analyzed by LC-MS/MS. […] The half-life and clearance were calculated using the following equations: […]
experimental_readout: Liver Microsomal Stability (ER) Beagle dog

>>> reported_value("CC(C)(C)[C@H](NC(=O)C(F)(F)F)C(=O)N1C[C@H]2[C@@H]([C@H]1C(=O)N[C@@H](C[C@@H]1CCNC1=O)C(=O)CO)C2(C)C")
"−0.06"
>>> reported_value("CC(C)C[C@H](NC(=O)c1cc2ccccc2[nH]1)C(=O)N1C[C@H]2[C@@H]([C@H]1C(=O)N[C@@H](C[C@@H]1CCNC1=O)C(=O)CCl)C2(C)C")
0.81
>>> reported_value("CC1(C)[C@@H]2[C@@H](C(=O)N[C@H](C#N)C[C@@H]3CCCNC3=O)N(C(=O)[C@@H](NC(=O)C(F)F)C3CC3)C[C@@H]21")
"−0.03"
>>> reported_value("COc1cccc2[nH]c(C(=O)N[C@@H](CC(C)C)C(=O)N[C@H](C#N)C[C@@H]3CCNC3=O)cc12")
0.12
>>> reported_value("CC(C)C[C@H](NC(=O)[C@@H](NC(=O)C(F)F)[C@@H](C)OC(C)(C)C)C(=O)N[C@H](C#N)C[C@@H]1CCNC1=O")
0.06
>>> reported_value("CC(C)C[C@H](NC(=O)c1cc2ccccc2[nH]1)C(=O)N1C[C@H]2[C@@H]([C@H]1C(=O)N[C@H](C=O)C(C)C)C2(C)C")
0.56
>>> reported_value("CC(C)C[C@H](NC(=O)C(C)(C)C)C(=O)N1C[C@H]2[C@@H]([C@H]1C(=O)N[C@H](C#N)C[C@@H]1CCNC1=O)C2(C)C")
0.16
>>> reported_value("CC(C)C[C@H](NC(=O)c1cc2ccccc2[nH]1)C(=O)N[C@@H](C[C@@H]1CCNC1=O)C(=O)O")
0.02

----------
# system_tested: UniProt P0DTD1
# Type: biochemical
# assay_conditions: read-out: SARS-CoV-2M^pro inhibition IC50
pIC50: −log10 of the molar value.
In this section, each of the molecules is paired with its reported pIC50.
experimental_readout: pIC50

>>> reported_value("Cc1cccc2[nH]c(C(=O)N[C@@H](CC(C)C)C(=O)N[C@@H](C[C@@H]3CCNC3=O)C(=O)CCl)cc12 [Compound A-4-c]")
5.95
>>> reported_value("COc1cccc2[nH]c(C(=O)N[C@@H](CC(C)C)C(=O)N[C@@H](C[C@@H]3CCNC3=O)C(=O)CCl)cc12 [Compound A-5-c]")
6.45
>>> reported_value("CC(C)C[C@H](NC(=O)c1cc2c(F)cccc2[nH]1)C(=O)N[C@@H](C[C@@H]1CCNC1=O)C(=O)CO [Compound A-3-e]")
8.29
>>> reported_value("CC(C)C[C@H](NC(=O)c1cc2ccccc2[nH]1)C(=O)N1C[C@H]2[C@@H]([C@H]1C(=O)N[C@@H](C[C@@H]1CCNC1=O)C(=O)CCl)C2(C)C [Compound G-1-d]")
6.01
>>> reported_value("CC(C)C[C@H](NC(=O)c1cc2ccccc2[nH]1)C(=O)N[C@@H](C[C@@H]1CCNC1=O)C(=O)CCl [Compound A-1-g]")
7.33
>>> reported_value("Cc1cccc2[nH]c(C(=O)N[C@@H](CC(C)C)C(=O)N[C@H](C=O)C[C@@H]3CCNC3=O)cc12 [Compound A-4-a]")
8.62
>>> reported_value("CC(C)C[C@H](NC(=O)c1cc2c(F)cccc2[nH]1)C(=O)N[C@@H](C[C@@H]1CCNC1=O)C(=O)CCl [Compound A-3-d]")
6.47
>>> reported_value("CC1(C)[C@@H]2[C@@H](C(=O)N[C@H](C#N)C[C@@H]3CCNC3=O)N(C(=O)[C@@H](NC(=O)C3CC3)C3CC3)C[C@@H]21 [Compound D-2-c]")
7.16

----------
# Type: in vitro ADME
# assay_conditions: extraction ratio, compound at 1 uM, mouse liver microsomes 0.5 mg/mL
experimental_readout: Liver Microsomal Stability (ER) Mouse

>>> reported_value("CC(C)(C)[C@H](NC(=O)C(F)(F)F)C(=O)N1C[C@H]2[C@@H]([C@H]1C(=O)N[C@H](C#N)C[C@@H]1CCCNC1=O)C2(C)C")
0.66
>>> reported_value("CC(C)C[C@H](NC(=O)c1cc2ccccc2[nH]1)C(=O)N1C[C@H]2[C@@H]([C@H]1C(=O)N[C@H](C=O)C(C)C)C2(C)C")
0.16
>>> reported_value("C[C@@H](C=O)NC(=O)[C@@H]1[C@@H]2[C@H](CN1C(=O)[C@@H](NC(=O)C(F)(F)F)C1CC1)C2(C)C")
"−0.05"
>>> reported_value("CC(C)C[C@H](NC(=O)c1cc2c(F)cccc2[nH]1)C(=O)N[C@H](C=O)C[C@@H]1CCNC1=O")
0.14

----------
# assay_conditions: mouse oral PK, female Balb/c, 40 mg/kg single dose, plasma
Binary call on t1/2: Met from 2 h upward, Not met beneath that.

>>> class_assignment("CC(C)(C)[C@H](NC(=O)C(F)(F)F)C(=O)N1C[C@H]2[C@@H]([C@H]1C(=O)N[C@H](C#N)C[C@@H]1CCCNC1=O)C2(C)C")
"Not met"
>>> class_assignment("CC(C)C[C@H](NC(=O)c1cc2ccccc2[nH]1)C(=O)N1C[C@H]2[C@@H]([C@H]1C(=O)N[C@H](C=O)C[C@@H]1CCNC1=O)C2(C)C")
"Not met"
>>> class_assignment("CC(C)(C)[C@H](NC(=O)C(F)(F)F)C(=O)N1C[C@H]2[C@@H]([C@H]1C(=O)N[C@@H](C[C@@H]1CCNC1=O)C(=O)CO)C2(C)C")
"Met"
>>> class_assignment("CC(C)C[C@H](NC(=O)C1CC1)C(=O)N1C[C@H]2[C@@H]([C@H]1C(=O)N[C@H](C#N)C[C@@H]1CCNC1=O)C2(C)C")
"Not met"
>>> class_assignment("CC(C)C[C@H](NC(=O)C(F)F)C(=O)N1C[C@H]2[C@@H]([C@H]1C(=O)N[C@H](C#N)C[C@@H]1CCNC1=O)C2(C)C")
"Met"
>>> class_assignment("Cc1cccc2[nH]c(C(=O)N[C@@H](CC(C)C)C(=O)N[C@@H](C[C@@H]3CCNC3=O)C(=O)CO)cc12")
"Met"
>>> class_assignment("CC(C)C[C@H](CC(=O)[C@@H](NC(=O)OCc1ccccc1)[C@@H](C)OC(C)(C)C)C(=O)N[C@H](C=O)C[C@@H]1CCNC1=O")
"Not met"
>>> class_assignment("CC(C)(C)[C@H](NC(=O)C(F)(F)F)C(=O)N1C[C@H]2[C@@H]([C@H]1C(=O)N[C@H](C=O)C[C@@H]1CCNC1=O)C2(C)C")
"Not met"
>>> class_assignment("CC(C)(C)[C@H](NC(=O)C(F)F)C(=O)N1C[C@H]2[C@@H]([C@H]1C(=O)N[C@H](C#N)C[C@@H]1CCNC1=O)C2(C)C")
"Not met"
>>> class_assignment("CC(C)C[C@H](NC(=O)c1cc2ccccc2[nH]1)C(=O)N1C[C@H]2[C@@H]([C@H]1C(=O)N[C@H](C#N)C(C)(C)C)C2(C)C")
"Not met"
>>> class_assignment("C[C@@H](OC(C)(C)C)[C@H](NC(=O)OCc1ccccc1)C(=O)N[C@@H](CC1CCCCC1)C(=O)N[C@H](C=O)C[C@@H]1CCNC1=O")
"Not met"

----------
# Test system: SARS-CoV-2
# method_notes: Anti-viral in vitro PRNT assay in Vero E6 cells
# Format: cell-based
# assay_conditions: Vero E6 cells, 1000 pfu, 3 days, plaque reduction
experimental_readout: anti-SARS-CoV2 (PRNT) in Vero E6 EC50 (μM)

>>> reported_value("C[C@@H](C=O)NC(=O)[C@@H]1[C@@H]2[C@H](CN1C(=O)[C@@H](NC(=O)C(F)(F)F)C1CC1)C2(C)C [Compound F-3-c]")
"inactive"
>>> reported_value("COc1cccc2[nH]c(C(=O)N[C@@H](CC(C)C)C(=O)N[C@H](C#N)C[C@@H]3CCNC3=O)cc12 [Compound A-5-b]")
"inactive"
>>> reported_value("C=CC(=O)N[C@H](C[C@@H]1CCNC1=O)NC(=O)[C@H](CC(C)C)NC(=O)OCc1ccccc1 [Compound B-1-f]")
"inactive"
